subject.of.test: Full-length wild type HIV-1 integrase (SF1) (Human immunodeficiency virus type 1 group M subtype B)
Construct: made in house; host or cells: E. coli BL21 (DE3)
method: Integrase strand-transfer scintillation proximity assay
Assay type: biochemical
assay.conditions: strand transfer, 50 min at 37° C., 246 nM integrase, 50 nM host DNA; read-out: IC50
Categories are defined by ranges of IC50, namely LOW = under 400 nM, MEDIUM = from 400 nM up to 600 nM, HIGH = 600 nM and over

[in] Each compound maps to one class by IC50. Which class for "O=C(NO)c1cc2c(CNCCC3CCOCC3)cn(Cc3ccc(F)cc3F)c2cn1" ?
[out] MEDIUM

[in] Which class holds CC(C)C(CO)NCc1cn(Cc2ccc(F)cc2F)c2cnc(C(=O)NO)cc12 (stereo not shown) ?
[out] MEDIUM

[in] # bin label for "O=C1CN(Cc2cn(Cc3ccc(F)cc3)c3cnc(C(=O)NOCc4ccccc4)cc23)CCN1"
[out] HIGH

[in] Lab note: sort "O=C(NO)c1cc2ccn(CCC3CCCCC3)c2cn1" into the matching IC50 band.
[out] HIGH

[in] Band of "COCCOCc1cn(Cc2ccc(F)cc2F)c2cnc(C(=O)N(C)O)cc12" ?
[out] LOW

[in] Record "Cc1cccc(CNCc2cn(Cc3ccc(F)cc3F)c3cnc(C(=O)NO)cc23)c1" — which class?
[out] LOW

[in] Categorize the following entry: CC(O)CNCc1cn(Cc2ccc(F)cc2F)c2cnc(C(=O)NO)cc12 (stereo not shown)
[out] HIGH

[in] For the record "O=C(NO)c1cc2c(CNCCN3CCOCC3)cn(Cc3ccc(F)cc3F)c2cn1" , report the class its IC50 corresponds to.
[out] HIGH

[in] Looking at "CONC(=O)c1cc2ncn(Cc3ccc(F)cc3)c2cn1" , which class would you pick?
[out] HIGH

[in] Lab note: sort "CCCN(Cc1cn(Cc2ccc(F)cc2F)c2cnc(C(=O)NO)cc12)CC1CC1" into the matching IC50 band.
[out] HIGH

[in] Input "CC(C)CN(O)C(=O)c1cc2ccn(Cc3ccc(F)cc3)c2cn1" ; output its category
[out] HIGH

[in] Each compound maps to one class by IC50. Which class for CC1C(=O)NCCN1Cc1cn(Cc2ccc(F)cc2)c2cnc(C(=O)N(C)O)cc12 (stereo not shown) ?
[out] MEDIUM

[in] Bin? "NC(=O)CNCc1cn(Cc2ccc(F)cc2F)c2cnc(C(=O)NO)cc12"
[out] LOW

[in] Please classify: C[C@@H](NCc1cn(Cc2ccc(F)cc2F)c2cnc(C(=O)NO)cc12)[C@@H](O)c1ccccc1 (stereo in doubt)
[out] LOW

[in] Which band does "O=C(NO)c1cc2c(CNCc3ccc(OC(F)F)cc3)cn(Cc3ccc(F)cc3F)c2cn1" fall in?
[out] LOW

[in] Lab note: which band did "O=C(NO)c1cc2c(CNCCCN3CCCC3=O)cn(Cc3ccc(F)cc3F)c2cn1" land in?
[out] MEDIUM

[in] Band assignment needed for CCN1CCCC1CNCc1cn(Cc2ccc(F)cc2F)c2cnc(C(=O)NOC)cc12 (stereo not shown) please.
[out] HIGH

[in] Which IC50 category applies to O=C(NO)c1cc2c(CNCC3CCCO3)cn(Cc3ccc(F)cc3F)c2cn1 (stereo not shown) here?
[out] MEDIUM

[in] Determine which band this compound sits in: "CCCN(O)C(=O)c1cc2ccn(Cc3ccc(F)cc3)c2cn1"
[out] HIGH

[in] Band assignment needed for "CN1CCN(Cc2cn(Cc3ccc(F)cc3F)c3cnc(C(=O)NO)cc23)CC1" please.
[out] LOW

[in] Please classify: O=C(NO)c1cc2c(CNCCO)cn(Cc3ccc(F)cc3F)c2cn1 [Example 80]
[out] MEDIUM

[in] Bin? "O=C(c1cc2ccn(Cc3ccc(F)cc3)c2cn1)N(O)CCCO"
[out] HIGH

[in] Category of "CONC(=O)c1cc2c(CN3CCN(C)CC3)cn(Cc3ccc(F)cc3F)c2cn1" :
[out] MEDIUM

[in] Which band does CCN1CCCC1CNCc1cn(Cc2ccc(F)cc2F)c2cnc(C(=O)NO)cc12 (stereo not shown) [Example 62] fall in?
[out] HIGH

[in] Into which category would you place "O=C(NO)c1cc2c(CNCCc3c[nH]c4ccccc34)cn(Cc3ccc(F)cc3F)c2cn1" ?
[out] LOW

[in] Form: Item = "CN(CCc1ccccn1)Cc1cn(Cc2ccc(F)cc2F)c2cnc(C(=O)NO)cc12" ; Class = ?
[out] MEDIUM

[in] Which bin, given its IC50, does "O=C(NO)c1cc2c(CNCc3n[nH]c4c3CCC4)cn(Cc3ccc(F)cc3F)c2cn1" occupy?
[out] LOW

[in] Each compound maps to one class by IC50. Which class for CN(O)C(=O)c1cc2c(CN3CC[C@@H]4C(=O)NC[C@@H]4C3)cn(Cc3ccc(F)cc3F)c2cn1 (racemic) ?
[out] MEDIUM

[in] Please let me know in which category the item "O=C(NO)c1cc2c(CN[C@H](CO)Cc3ccccc3)cn(Cc3ccc(F)cc3F)c2cn1" belongs.
[out] LOW

[in] Returns: class label. Input: "CN(O)C(=O)c1cc2c(CN3[C@H]4CC[C@@H]3C(=O)NC4)cn(Cc3ccc(F)cc3)c2cn1"
[out] MEDIUM

[in] Just checking, what class would you give "O=C1CN(Cc2cn(Cc3ccc(F)cc3)c3cnc(C(=O)NOc4ccccc4)cc23)CCN1" here?
[out] LOW

[in] Just checking, what class would you give "COCCOCc1cn(Cc2ccc(F)cc2)c2cnc(C(=O)N(C)O)cc12" here?
[out] LOW

[in] Into which category would you place "O=C(NO)c1cc2cnn(Cc3ccc(F)cc3)c2cn1" ?
[out] MEDIUM
